system: Hepatotoxicity; assay: Human drug-induced liver injury (DILI) modelling dataset from Ekins et al
readout: Hepatotoxicity

Previously resolved entries follow.
molecule	readout	value_measured
O=C1OC(c2ccc(O)c(S(=O)(=O)O)c2)(c2ccc(O)c(S(=O)(=O)O)c2)c2c(Br)c(Br)c(Br)c(Br)c21	Hepatotoxicity	DILI positive (test set)
C=C1CC[C@H](O)C/C1=C/C=C1\CCC[C@]2(C)[C@@H]([C@H](C)CCCC(C)(C)O)CC[C@@H]12.O	Hepatotoxicity	DILI positive (test set)
Clc1ccc(CSC(Cn2ccnc2)c2ccc(Cl)cc2Cl)cc1.O=[N+]([O-])O (configuration not stated) [SULCONAZOLE NITRATE]	Hepatotoxicity	DILI negative (test set)
C#C[C@]1(O)CC[C@H]2[C@@H]3CCc4cc(O)ccc4[C@H]3CC[C@@]21C	Hepatotoxicity	DILI positive (test set)
CC(C)Cc1ccc(C(C)C(=O)O)cc1 (configuration not stated)	Hepatotoxicity	DILI negative (test set)

// next entry
Looking up Nc1ccc(S(=O)(=O)NC(=O)c2ccccc2)cc1 [SULFABENZAMIDE] , I found its Hepatotoxicity recorded as DILI negative (test set)
